The values you see were collected from paper PMC9804489.

test: UP0030 phase 1 study: plasma pharmacokinetics of UCB0599 and its metabolites
Type: in vivo, human
recordedConditions: human, plasma, oral; UP0030 single dose 450 mg; read-out: C max, GeoMean
readoutLabel: Cmax

CCCC[C@H](Cc1c[nH]c2ccccc12)NC(=O)c1cnc(N2CCN(C)CC2)s1 : 1810 ng/mL

---

test: UP0030 phase 1 study: plasma pharmacokinetics of UCB0599 and its metabolites
Type: in vivo, human
recordedConditions: human, plasma, oral; UP0030 single dose 90 mg; read-out: AUC, GeoMean
readoutLabel: AUC (ng·h/mL)

CCCC[C@H](Cc1c[nH]c2ccccc12)NC(=O)c1cnc(N2CCN(C)CC2)s1 [UCB0599] : 3220
